# System: SF-295 CNS
# method_summary: NCI tumour cell line growth inhibition, 48 h
experimental_readout: TGI

| compound | val |
| --- | --- |
| CN(C)c1ccc(/C=C/c2ccc(/C=C/c3ccc(N(C)C)cc3)cc2)cc1 | > 100 µM |

For each of the compounds below, note its TGI.
1. CN=C(NC(=S)N(C)C)N(C)C
2. Nc1ccccc1.[C-]#[O+].[C-]#[O+].[C-]#[O+].[C-]#[O+].[C-]#[O+].[Cr]
3. CCn1c(SC(C)C(=O)c2c(C)n(C)n(-c3ccccc3)c2=O)nc2ccccc2c1=O (configuration not stated)
4. C=CCN1C(=O)/C(=C/c2ccco2)N=C1SC1OC(COC(C)=O)C(OC(C)=O)C(OC(C)=O)C1OC(C)=O (configuration not stated)

(A)
1. > 100 µM
2. > 10 µM
3. > 100 µM
4. > 100 µM
